tested on: NCI-H460 lung; assay: NCI-60 one-dose screen, 48 h (100 = growth as untreated, 0 = no growth, -100 = all killed); conditions: 10 µM
Compounds without any hit were thinned out: in the full panel of roughly 83,000, 20% have a hit. Calls of active or inactive are those of the source. The calls were made as follows: active = growth percent below 10; inactive = the rest.
# key: entry, value: growth
attributeMeasured: growth

molecule	result
CCC/C=C(\C)C(C)(C#N)C(=O)OCC (centres undefined)	108% (inactive)
Oc1ccc(O)cc1	113% (inactive)
CC(=O)N(C)c1ccc([N+](=O)[O-])cc1	117% (inactive)
Cc1cc(=O)[nH]c(NN=C2CCCC2)n1	116% (inactive)
NC(C(=O)O)C(O)c1ccco1 (centres undefined)	108% (inactive)
CCO/C=C1\SC(=S)N(c2cccc(C)c2)C1=O	102% (inactive)
COCCCC/C(=N\OCCN)c1ccc(C(F)(F)F)cc1	106% (inactive)
CC(C)C(C#N)(C(C)C)C(C)C	102% (inactive)
CCCNC(=O)c1ccc(S(N)(=O)=O)cc1	108% (inactive)
CCOC(=O)C1=C(Nc2ccc(Br)cc2)C(=O)N(CC)C1	107% (inactive)
COc1cccc(O)c1O	103% (inactive)
Cc1cc2nc(CO)[nH]c2cc1C	114% (inactive)
CC(=O)NC(N)=S	105% (inactive)
CCC(C#N)(CC)c1ccccc1	104% (inactive)

FYI, the data here is from PubChem BioAssay (NCI).
